Source: patent US9045524B2

target: Caspase-7 (Homo sapiens (Human), UniProt P55210); assay: Caspase-7 Inhibitor Drug Screening Kit, fluorometric (AFC liberation); type: biochemical; conditions: 30-minute incubation at 37° C.; approximations of the average values; read-out: Caspase enzymatic activity, IC50 (uM) Caspase 7
observation_type: log10 IC50 (log10 of the value in µM)
// units: µM (pre-log); metric: IC50; scale: log10

Entry under test: CC(C)[C@H](NC(=O)[C@H](Cc1ccc(O)cc1)NC(=O)[C@H](CC(=O)O)NC(=O)OCc1ccccc1)C(=O)N[C@H](/C=C/S(C)(=O)=O)CC(=O)O . Its log10 IC50 was -0.15

Entry under test: CC(C)[C@H](NC(=O)[C@H](Cc1ccc2ccccc2n1)NC(=O)[C@H](CC(=O)O)NC(=O)OCc1ccccc1)C(=O)N[C@H](/C=C/S(=O)(=O)c1ccccc1)CC(=O)O . Its log10 IC50 was 0.26

Entry under test: CC(C)[C@H](NC(=O)[C@@H](NC(=O)[C@H](CC(=O)O)NC(=O)OCc1ccccc1)C1Cc2ccccc2C1)C(=O)N[C@H](/C=C/S(=O)(=O)C(C)C)CC(=O)O . Its log10 IC50 was 0.18

Entry under test: CC(C)[C@H](NC(=O)C(Cc1ccc2ccccc2n1)NC(=O)[C@H](CC(=O)O)NC(=O)OCc1ccccc1)C(=O)N[C@H](/C=C/S(C)(=O)=O)CC(=O)O (stereo partly shown) . Its log10 IC50 was 0.95

Entry under test: CC(C)[C@H](NC(=O)[C@H](Cc1c[nH]c2ccccc12)NC(=O)[C@H](CC(=O)O)NC(=O)OCc1ccccc1)C(=O)N[C@H](/C=C/S(C)(=O)=O)CC(=O)O . Its log10 IC50 was 0.04

Entry under test: CC(C)[C@H](NC(=O)[C@@H](NC(=O)[C@H](CC(=O)O)NC(=O)OCc1ccccc1)C1Cc2ccccc2C1)C(=O)N[C@H](/C=C/S(C)(=O)=O)CC(=O)O . Its log10 IC50 was -0.70

Entry under test: CC(C)[C@H](NC(=O)[C@H](Cc1ccc2ccccc2n1)NC(=O)[C@H](CC(=O)O)NC(=O)OCc1ccccc1)C(=O)N[C@H](/C=C/S(=O)(=O)Oc1ccccc1)CC(=O)O . Its log10 IC50 was -0.40

Entry under test: CC(C)[C@H](NC(=O)[C@H](Cc1ccc2ccccc2n1)NC(=O)[C@H](CC(=O)O)NC(=O)OCc1ccccc1)C(=O)N[C@H](/C=C(\Cl)S(C)(=O)=O)CC(=O)O . Its log10 IC50 was -0.40

Entry under test: CC(C)[C@H](NC(=O)[C@@H](NC(=O)[C@H](CC(=O)O)NC(=O)OCc1ccccc1)c1ccccc1)C(=O)N[C@H](/C=C/S(C)(=O)=O)CC(=O)O . Its log10 IC50 was -0.10

Entry under test: CC(C)[C@H](NC(=O)[C@H](Cc1ccccn1)NC(=O)[C@H](CC(=O)O)NC(=O)OCc1ccccc1)C(=O)N[C@H](/C=C/S(=O)(=O)c1ccccc1)CC(=O)O . Its log10 IC50 was 0.00

###

biological target: UniProt P51878; assay: Fluorometric enzymatic assay, active recombinant Caspase-5; assay type: biochemical; conditions: 10-point titration 0.1 nM to 3.3 μM, 30-minute incubation at 37° C.; read-out: IC50 values (μM) Caspase-5
Sequence (P51878 whole entry, looked up): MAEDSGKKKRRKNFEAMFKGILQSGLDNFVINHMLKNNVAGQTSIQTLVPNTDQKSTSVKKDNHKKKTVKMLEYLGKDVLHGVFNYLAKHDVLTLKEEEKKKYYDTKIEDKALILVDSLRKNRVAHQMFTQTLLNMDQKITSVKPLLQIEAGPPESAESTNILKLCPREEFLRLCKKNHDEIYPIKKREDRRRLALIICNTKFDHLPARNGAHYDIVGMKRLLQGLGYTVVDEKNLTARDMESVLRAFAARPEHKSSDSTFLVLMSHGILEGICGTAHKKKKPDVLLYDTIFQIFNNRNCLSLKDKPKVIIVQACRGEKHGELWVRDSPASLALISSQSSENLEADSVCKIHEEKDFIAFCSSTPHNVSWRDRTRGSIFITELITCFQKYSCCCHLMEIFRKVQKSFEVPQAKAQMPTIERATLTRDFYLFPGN
Sequence (P51878 whole entry, looked up): as above
observation_type: IC50

Entry under test: CC(C)[C@H](NC(=O)[C@H](Cc1cccc2ccccc12)NC(=O)[C@H](CC(=O)O)NC(=O)OCc1ccccc1)C(=O)N[C@H](/C=C/S(C)(=O)=O)CC(=O)O [Compound 111] . Its IC50 was > 3.33 µM

Entry under test: CC(C)[C@H](NC(=O)[C@@H](NC(=O)[C@H](CC(=O)O)NC(=O)OCc1ccccc1)c1ccccc1)C(=O)N[C@H](/C=C/S(C)(=O)=O)CC(=O)O [Compound 53, Z-Asp-Phg-Val-Aspmethyl vinyl sulfone] . Its IC50 was > 3.33 µM

Entry under test: CC(C)[C@H](NC(=O)[C@@H](NC(=O)[C@H](CC(=O)O)NC(=O)OCc1ccccc1)c1ccccc1)C(=O)N[C@H](/C=C(\Cl)S(C)(=O)=O)CC(=O)O [Compound 123] . Its IC50 was > 3.33 µM

###

biological target: Caspase-1 (Homo sapiens (Human), UniProt P29466); test: Caspase-1 Inhibitor Drug Screening Kit, fluorometric (AFC liberation); assay type: biochemical; conditions: 30-minute incubation at 37° C.; approximations of the average values; read-out: Caspase enzymatic activity, IC50 (uM) Caspase 1
Sequence (P29466 120-404): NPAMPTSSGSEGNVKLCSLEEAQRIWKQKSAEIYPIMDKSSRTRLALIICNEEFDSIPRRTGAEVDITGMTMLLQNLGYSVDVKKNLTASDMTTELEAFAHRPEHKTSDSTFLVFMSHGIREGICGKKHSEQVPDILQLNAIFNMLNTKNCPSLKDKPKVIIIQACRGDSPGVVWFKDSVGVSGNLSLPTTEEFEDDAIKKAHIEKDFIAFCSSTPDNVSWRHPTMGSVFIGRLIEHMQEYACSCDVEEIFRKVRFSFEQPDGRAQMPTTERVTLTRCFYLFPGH
Give IC50 for every item shown.

Entry under test: CC(C)[C@H](NC(=O)[C@H](Cc1ccc2ccccc2n1)NC(=O)[C@H](CC(=O)OC(C)(C)C)NC(=O)OCc1ccccc1)C(=O)N[C@H](/C=C/S(=O)(=O)N1CCOCC1)CC(=O)OC(C)(C)C [Compound 66] . Its IC50 was > 3.33 µM

Entry under test: CC(C)[C@H](NC(=O)[C@@H](NC(=O)[C@H](CC(=O)O)NC(=O)OCc1ccccc1)c1ccccc1)C(=O)N[C@H](/C=C/S(=O)(=O)c1ccccc1)CC(=O)O [Compound 69, Z-Asp-Phg-Val-Asp-phenyl Vinylsulfone] . Its IC50 was > 3.33 µM

Entry under test: CC(C)[C@H](NC(=O)[C@@H](NC(=O)[C@H](CC(=O)O)NC(=O)OCc1ccccc1)C1Cc2ccccc2C1)C(=O)N[C@H](/C=C/S(=O)(=O)C(C)C)CC(=O)O [Compound 68] . Its IC50 was > 3.33 µM

Entry under test: CC(C)[C@H](NC(=O)[C@H](Cc1ccc2ccccc2n1)NC(=O)[C@H](CC(=O)O)NC(=O)OCc1ccccc1)C(=O)N[C@H](/C=C(\Cl)S(C)(=O)=O)CC(=O)O [Compound 48] . Its IC50 was > 3.33 µM

Entry under test: CC(C)[C@H](NC(=O)[C@H](Cc1ccc(O)cc1)NC(=O)[C@H](CC(=O)O)NC(=O)OCc1ccccc1)C(=O)N[C@H](/C=C/S(C)(=O)=O)CC(=O)O [Compound 76, Z-Asp-Tyr-Val-Aspmethyl vinyl sulfone] . Its IC50 was > 3.33 µM

Entry under test: CC(C)[C@H](NC(=O)[C@H](Cc1ccc2ccccc2n1)NC(=O)[C@H](CC(=O)O)NC(=O)OCc1ccccc1)C(=O)N[C@H](/C=C/S(=O)(=O)c1ccccc1)CC(=O)O [Compound 63] . Its IC50 was > 3.33 µM

Entry under test: CC(C)[C@H](NC(=O)[C@@H](NC(=O)[C@H](CC(=O)O)NC(=O)OCc1ccccc1)c1ccccc1)C(=O)N[C@H](/C=C/S(C)(=O)=O)CC(=O)O [Compound 53, Z-Asp-Phg-Val-Aspmethyl vinyl sulfone] . Its IC50 was 2 µM

Entry under test: CC(C)[C@H](NC(=O)C(Cc1ccc2ccccc2n1)NC(=O)[C@H](CC(=O)O)NC(=O)OCc1ccccc1)C(=O)N[C@H](/C=C/S(C)(=O)=O)CC(=O)O (stereo partly shown) [Compound 71] . Its IC50 was > 10 µM

Entry under test: CC(C)[C@H](NC(=O)[C@H](Cc1ccc2ccccc2n1)NC(=O)[C@H](CC(=O)O)NC(=O)OCc1ccccc1)C(=O)N[C@H](/C=C/S(C)(=O)=O)CC(=O)O [Compound 55] . Its IC50 was > 10 µM

Entry under test: Cc1ccc(S(=O)(=O)N[C@@H](Cc2ccc3ccccc3n2)C(=O)N[C@H](C(=O)N[C@H](/C=C(\Cl)S(C)(=O)=O)CC(=O)O)C(C)C)cc1 [Compound 50] . Its IC50 was > 3.33 µM

###

system: proteolytic cleavage of PARP (poly ADP-ribose polymerase) in Hela cells; experiment: Inhibition of staurosporine-induced PARP cleavage in live Hela cells; assay type: cell-based; settings: Homo sapiens, HeLa, 4 h, read-out: % inhibition of PARP cleavage at 50 uM compound, Hela cells, staurosporine 4 hours, 50 uM compound
Counter-ions that a name gives are not always drawn. Square brackets hold non-standard residues; d marks the D form. Peptide text beside a SMILES is read from it. * marks the point of attachment. Phg = N[C@H](C(=O)O)c1ccccc1; Cbz = O=C(OCc1ccccc1)*; OtBu = CC(C)(C)O*
observation_type: inhibition at 50 µM (%)
# output: bare number, implied unit %

Entry under test: CC(C)[C@H](NC(=O)[C@@H](NC(=O)[C@H](CC(=O)OC(C)(C)C)NC(=O)OCc1ccccc1)c1ccccc1)C(=O)O [Compound 16, Z-Asp(β-tert-butyl)-Phg-Val-OH] (Cbz-Asp(OtBu)-[Phg]-Val-OH) . Its inhibition at 50 µM was 13

Entry under test: CC(C)(C)OC(=O)C[C@H](N)/C=C/S(=O)(=O)c1ccccc1 [Compound 37, Asp-vinyl Phenyl Sulfone Salt Form] . Its inhibition at 50 µM was 20

Entry under test: CC(C)(C)OC(=O)C[C@H](N)/C=C/S(C)(=O)=O.Cc1ccc(S(=O)(=O)O)cc1 . Its inhibition at 50 µM was 30
